Values from PubChem BioAssay AID2060910

Reported viability, T/C values for the following molecules.
Test system: 242566-281-R-J2-PDC complex spheroid viability
Test: Anticancer human tumor 242566-281-R-J2-PDC patient-derived pancreatic carcinoma cell line growth inhibition [RAS]
Details: second compound 0.00949 µM; first compound 0.003 µM; hits give low values
Field: numeric (%). Do not append units.

-- ask Fill blank: measured viability, T/C of the molecule CCc1c2c(nc3ccc(O)cc13)-c1cc3c(c(=O)n1C2)COC(=O)[C@]3(O)CC + CCn1c(-c2cccnc2C(C)OC)c2c3cc(ccc31)N1CCOC(CC(NC(=O)C(C(C)C)N(C)C(=O)C3(F)CCN(C(=O)C#CC(C)(C)N(C)C)CC3)C(=O)N3CCCC(N3)C(=O)OCC(C)(C)C2)C1 is ____.
-- reply 76.1

-- ask Fill blank: measured viability, T/C of the molecule CC1(C)CCC(Nc2ncc(C(F)(F)F)c(-c3c[nH]c4c(P(C)(C)=O)c(C#N)ccc34)n2)CN1 (centres undefined) + CCn1c(-c2cccnc2C(C)OC)c2c3cc(ccc31)N1CCOC(CC(NC(=O)C(C(C)C)N(C)C(=O)C3(F)CCN(C(=O)C#CC(C)(C)N(C)C)CC3)C(=O)N3CCCC(N3)C(=O)OCC(C)(C)C2)C1 is ____.
-- reply 86.5

-- ask Fill blank: measured viability, T/C of the molecule CC1(C)CCC(Nc2ncc(C(F)(F)F)c(-c3c[nH]c4c(P(C)(C)=O)c(C#N)ccc34)n2)CN1 (centres undefined) + CCn1c(-c2cc(N3CCN(C)CC3)cnc2C(C)OC)c2c3cc(ccc31)-c1csc(n1)CC(NC(=O)C1CC1C)C(=O)N1CCCC(N1)C(=O)OCC(C)(C)C2 is ____.
-- reply 39.9

-- ask Fill blank: measured viability, T/C of the molecule CCc1c2c(nc3ccc(O)cc13)-c1cc3c(c(=O)n1C2)COC(=O)[C@]3(O)CC + CCn1c(-c2cc(N3CCN(C)CC3)cnc2C(C)OC)c2c3cc(ccc31)-c1csc(n1)CC(NC(=O)C1CC1C)C(=O)N1CCCC(N1)C(=O)OCC(C)(C)C2 is ____.
-- reply 39.1

---

Test system: 242566-281-R-J2-PDC complex spheroid viability
Experiment: Anticancer human tumor 242566-281-R-J2-PDC cell line growth inhibition [RAS];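 further: spheroids exposed to compound for 7 days before readout; 100% = DMSO vehicle control wells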
Conditions: second compound 0.0949 µM; first compound 1 µM; hits give low values
property-name: viability, T/C (%)
Field: numeric (%). Do not append units.

Before answering, review these 3 worked examples.
>>> number("CCC(CC)c1cc(NC2CCC(N)C2)n2nccc2n1 (centres undefined) + CCn1c(-c2cccnc2C(C)OC)c2c3cc(ccc31)N1CCOC(CC(NC(=O)C(C(C)C)N(C)C(=O)C3(F)CCN(C(=O)C#CC(C)(C)N(C)C)CC3)C(=O)N3CCCC(N3)C(=O)OCC(C)(C)C2)C1")
80.5
>>> number("CC(Nc1ccc2c(c1)OCCn1cc(N3C(=O)OCC3C(F)F)nc1-2)C(N)=O (centres undefined) + CCn1c(-c2cc(N3CCN(C)CC3)cnc2C(C)OC)c2c3cc(ccc31)-c1csc(n1)CC(NC(=O)C1CC1C)C(=O)N1CCCC(N1)C(=O)OCC(C)(C)C2")
3.68
>>> number("CCN1CCN(Cc2ccc(Nc3ncc(F)c(-c4cc(F)c5nc(C)n(C(C)C)c5c4)n3)nc2)CC1 + CCn1c(-c2cc(N3CCN(C)CC3)cnc2C(C)OC)c2c3cc(ccc31)-c1csc(n1)CC(NC(=O)C1CC1C)C(=O)N1CCCC(N1)C(=O)OCC(C)(C)C2")
31.6

Lab note: next molecule to report on.
-- ask Fill blank: measured viability, T/C of the molecule CC1(O)CCCC1n1c(=O)c(C(F)F)cc2cnc(NC3CCN(S(C)(=O)=O)CC3)nc21 (centres undefined) + CCn1c(-c2cccnc2C(C)OC)c2c3cc(ccc31)N1CCOC(CC(NC(=O)C(C(C)C)N(C)C(=O)C3(F)CCN(C(=O)C#CC(C)(C)N(C)C)CC3)C(=O)N3CCCC(N3)C(=O)OCC(C)(C)C2)C1 is ____.
-- reply 90

---

Tested on: 242566-281-R-J2-PDC complex spheroid viability
Assay: Anticancer human tumor 242566-281-R-J2-PDC cell line growth inhibition [RAS];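 further: spheroids exposed to compound for 7 days before readout; 100% = DMSO vehicle control wells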
Conditions: second compound 1 µM; first compound 3.16 µM; hits give low values
Field: label. Allowed values: satisfied (viability, T/C < 40%) or not satisfied (viability, T/C >= 40%).

>>> label_value("CC(C)NCC(C(=O)N1CCN(c2ncnc3c2C(C)CC3O)CC1)c1ccc(Cl)cc1 (centres undefined) + C#Cc1c(F)ccc2cc(O)cc(-c3ncc4c(N5CC6CCC(C5)N6)nc(OCC56CCCN5CC(F)C6)nc4c3F)c12")
"satisfied"
>>> label_value("Cc1nc(N2CCC3(CC2)COC(C)C3N)c(CO)nc1Sc1ccnc(N)c1Cl (centres undefined) + C=CC(=O)N1CCN(c2nc(OCC3CCCN3C)nc3c(F)c(-c4nc(N)cc(C)c4C(F)(F)F)c(Cl)cc23)C(C)C1")
"not satisfied"
>>> label_value("CC(Nc1ccc2c(c1)OCCn1cc(N3C(=O)OCC3C(F)F)nc1-2)C(N)=O (centres undefined) + C=CC(=O)N1CCN(c2nc(OCC3CCCN3C)nc3c(F)c(-c4nc(N)cc(C)c4C(F)(F)F)c(Cl)cc23)C(C)C1")
"not satisfied"
>>> label_value("C[C@@H](NC(=O)c1ncnc(N)c1Cl)c1ncc(C(=O)Nc2cc(C(F)(F)F)c(Cl)cn2)s1 + C=CC(=O)N1CCN(c2nc(OCC3CCCN3C)nc3c(F)c(-c4nc(N)cc(C)c4C(F)(F)F)c(Cl)cc23)C(C)C1")
"not satisfied"
>>> label_value("CC(C)NCC(C(=O)N1CCN(c2ncnc3c2C(C)CC3O)CC1)c1ccc(Cl)cc1 (centres undefined) + C=CC(=O)N1CCN(c2nc(OCC3CCCN3C)nc3c(F)c(-c4nc(N)cc(C)c4C(F)(F)F)c(Cl)cc23)C(C)C1")
"not satisfied"

-- ask Would you kindly verify if viability, T/C of Cc1nc(N2CCC3(CC2)COC(C)C3N)c(CO)nc1Sc1ccnc(N)c1Cl (centres undefined) + C#Cc1c(F)ccc2cc(O)cc(-c3ncc4c(N5CC6CCC(C5)N6)nc(OCC56CCCN5CC(F)C6)nc4c3F)c12 is strictly less than 40%?
-- reply satisfied

-- ask Would you kindly verify if viability, T/C of CCC(CC)c1cc(NC2CCC(N)C2)n2nccc2n1 (centres undefined) + C#Cc1c(F)ccc2cc(O)cc(-c3ncc4c(N5CC6CCC(C5)N6)nc(OCC56CCCN5CC(F)C6)nc4c3F)c12 is strictly less than 40%?
-- reply satisfied

-- ask Would you kindly verify if viability, T/C of CC(Nc1ccc2c(c1)OCCn1cc(N3C(=O)OCC3C(F)F)nc1-2)C(N)=O (centres undefined) + C#Cc1c(F)ccc2cc(O)cc(-c3ncc4c(N5CC6CCC(C5)N6)nc(OCC56CCCN5CC(F)C6)nc4c3F)c12 is strictly less than 40%?
-- reply satisfied

-- ask Would you kindly verify if viability, T/C of CC1(O)CCCC1n1c(=O)c(C(F)F)cc2cnc(NC3CCN(S(C)(=O)=O)CC3)nc21 (centres undefined) + C#Cc1c(F)ccc2cc(O)cc(-c3ncc4c(N5CC6CCC(C5)N6)nc(OCC56CCCN5CC(F)C6)nc4c3F)c12 is strictly less than 40%?
-- reply not satisfied

---

Test system: 242566-281-R-J2-PDC complex spheroid viability
Assay: Anticancer human tumor 242566-281-R-J2-PDC cell line growth inhibition [RAS];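 further: spheroids exposed to compound for 7 days before readout; 100% = DMSO vehicle control wells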
Conditions: second compound 0.0949 µM; first compound 0.1 µM; hits give low values
property-name: viability, T/C (%)
Field: numeric (%). Do not append units.

>>> number("CCN1CCN(Cc2ccc(Nc3ncc(F)c(-c4cc(F)c5nc(C)n(C(C)C)c5c4)n3)nc2)CC1 + CCn1c(-c2cccnc2C(C)OC)c2c3cc(ccc31)N1CCOC(CC(NC(=O)C(C(C)C)N(C)C(=O)C3(F)CCN(C(=O)C#CC(C)(C)N(C)C)CC3)C(=O)N3CCCC(N3)C(=O)OCC(C)(C)C2)C1")
93.1
>>> number("CCC(CC)c1cc(NC2CCC(N)C2)n2nccc2n1 (centres undefined) + CCn1c(-c2cccnc2C(C)OC)c2c3cc(ccc31)N1CCOC(CC(NC(=O)C(C(C)C)N(C)C(=O)C3(F)CCN(C(=O)C#CC(C)(C)N(C)C)CC3)C(=O)N3CCCC(N3)C(=O)OCC(C)(C)C2)C1")
96.6
>>> number("C=CC(=O)N1CCN(c2nc(OCC3CCCN3C)nc3c(F)c(-c4nc(N)cc(C)c4C(F)(F)F)c(Cl)cc23)C(C)C1 (centres undefined) + CCn1c(-c2cccnc2C(C)OC)c2c3cc(ccc31)N1CCOC(CC(NC(=O)C(C(C)C)N(C)C(=O)C3(F)CCN(C(=O)C#CC(C)(C)N(C)C)CC3)C(=O)N3CCCC(N3)C(=O)OCC(C)(C)C2)C1")
86.9

-- ask Fill blank: measured viability, T/C of the molecule O=C(c1ccc(F)c(F)c1Nc1ccc(I)cc1F)N1CC(O)([C@@H]2CCCCN2)C1 + CCn1c(-c2cccnc2C(C)OC)c2c3cc(ccc31)N1CCOC(CC(NC(=O)C(C(C)C)N(C)C(=O)C3(F)CCN(C(=O)C#CC(C)(C)N(C)C)CC3)C(=O)N3CCCC(N3)C(=O)OCC(C)(C)C2)C1 is ____.
-- reply 52
